Test system: 786-O
Test: Cytotoxicity in vitro in the presence and absence of elastase (MTT)
Type: cell-based, human
Conditions: read-out: 786-O IC50 w/o
pIC50: −log10 of the molar value. Structures can show the parent of a compound that is named as a salt.
ENDPOINT_LABEL: pIC50

INSERT INTO results (compound, assay_system, result) VALUES
  ('CCCNC(=O)Nc1cccc(S(=O)(=O)Nc2cccc([C@@H](CC(=O)O)NC(=O)Nc3ccc(NC(=O)NCCOCCOCCOCCC(=O)N[C@@H](CC(=O)O)C(=O)N4CCC[C@H]4C(=O)N[C@H](C(=O)O[C@]4(CC)C(=O)OCc5c4cc4n(c5=O)Cc5cc6cc7c(cc6nc5-4)OCO7)C(C)C)cc3)c2)c1 [Compound 5, sodium salt]', '786-O', '8.00 to 8.96'),
  ('CCCNC(=O)Nc1cccc(S(=O)(=O)Nc2cccc([C@@H](CC(=O)O)NC(=O)Nc3ccc(NC(=O)NCCOCCOCCOCCC(=O)N[C@@H](CC(=O)O)C(=O)N4CCC[C@H]4C(=O)N[C@H](C(=O)O[C@]4(CC)C(=O)OCc5c4cc4n(c5=O)Cc5c-4nc4cc(F)c(C)c6c4c5[C@@H](N)CC6)C(C)C)cc3)c2)c1 [Compound 4]', '786-O', '8.00 to 8.96'),
  ('CCCNC(=O)Nc1cccc(S(=O)(=O)Nc2cccc([C@H](CC(=O)O)NC(=O)Nc3ccc(NC(=O)NCCOCCOCCOCCC(=O)N[C@@H](CC(=O)O)C(=O)N4CCC[C@H]4C(=O)N[C@H](C(=O)O[C@]4(CC)C(=O)OCc5c4cc4n(c5=O)Cc5cc6cc7c(cc6nc5-4)OCO7)C(C)C)cc3)c2)c1 [Compound 15, sodium salt]', '786-O', '7.00 to 8.00'),
  ('CCCNC(=O)Nc1cccc(S(=O)(=O)Nc2cccc([C@@H](CC(=O)O)NC(=O)Nc3ccc(NC(=O)NCCOCCOCCOCCC(=O)N[C@@H](CC(=O)O)C(=O)N4CCC[C@H]4C(=O)N[C@H](C(=O)O[C@]4(CC)C(=O)OCc5c4cc4n(c5=O)Cc5c-4nc4cc(F)c(C)c6c4c5[C@@H](NC(=O)OCc4ccccc4)CC6)C(C)C)cc3)c2)c1 [Compound 3]', '786-O', '7.00 to 8.00');

Okay, now this compound:
Q: I'd like to know its pIC50. The compound in question is CCCNC(=O)Nc1cccc(S(=O)(=O)Nc2cccc([C@H](CC(=O)O)NC(=O)Nc3ccc(NC(=O)NCCOCCOCCOCCC(=O)N[C@@H](CC(=O)O)C(=O)N4CCC[C@H]4C(=O)N[C@H](C(=O)O[C@]4(CC)C(=O)OCc5c4cc4n(c5=O)Cc5c-4nc4cc(F)c(C)c6c4c5[C@@H](NC(C)=O)CC6)C(C)C)cc3)c2)c1 [Compound 13]
A: 7.00 to 8.00

###

Test system: HT29
Assay: Cytotoxicity in vitro in the presence and absence of elastase (MTT)
Type: cell-based, human
Conditions: Homo sapiens, HT-29; HT29 cells; without elastase; 72 h; MTT; read-out: HT29 IC50 w/o
pIC50: −log10 of the molar value.
ENDPOINT_LABEL: pIC50

Q: Fill blank: measured pIC50 of the molecule CC[C@@]1(O)C(=O)OCc2c1cc1n(c2=O)Cc2c-1nc1cc(F)c(C)c3c1c2[C@@H](NC(=O)C(F)(F)F)CC3 [Compound 8] is ____.
A: 10.00 to 11.00

Q: Entry to check: CCN[C@H]1CCc2c(C)c(F)cc3nc4c(c1c23)Cn1c-4cc2c(c1=O)COC(=O)[C@]2(O)CC.O=C(O)C(F)(F)F [Compound 16]
A: 9.00 to 10.00
